tested on: PfIESI-1 RRM domain (Plasmodium falciparum ortholog aa 875-1232, GST fusion); assay: RBNS R-value (6-mer enrichment in protein-bound RNA vs input library) (ratio); higher = stronger binding preference; details: protein concentration: 500 nM
In all, about 4,100 sequences were measured (“RBNS R-value (6-mer enrichment in protein-bound RNA vs input library)”: median about 0.99, highest 2% from about 1.4 on). This excerpt belongs to a sample that is enriched for the highest values.
Entries annotated with measured RBNS R-value
Write no unit; give the number alone.

CCCUCG ... 0.973
ACUUGC ... 0.979
GGAUAC ... 0.991
UGUGAG ... 1
GGGACU ... 0.984
CUGGGC ... 0.987
CACCUC ... 1
CCUCCG ... 1.01

## Input Reported RBNS R-value, sequence GGUGAC : ____
## Output 0.987

## Input Reported RBNS R-value, sequence GUGAAG : ____
## Output 0.998

====

system: PfIESI-1 RRM domain (Plasmodium falciparum ortholog aa 875-1232, GST fusion); assay: RBNS R-value (6-mer enrichment in protein-bound RNA vs input library) (ratio); higher = stronger binding preference; conditions: protein concentration: 500 nM
Whole data set: some 4,100 sequences, median “RBNS R-value (6-mer enrichment in protein-bound RNA vs input library)” near 0.99, cut for the highest 2% near 1.4. This excerpt belongs to a sample that is enriched for the highest values.
READOUT_NAME: RBNS R-value
Write no unit; give the number alone.

Before answering, review these 3 worked examples.
GCAUCC ... 1.06
CCCUCU ... 0.894
UGACAA ... 1.14

## Input Reported RBNS R-value, sequence CAUCAU : ____
## Output 0.8

## Input Reported RBNS R-value, sequence AAAUAG : ____
## Output 1.06

## Input Reported RBNS R-value, sequence GCAUGG : ____
## Output 0.987

## Input Reported RBNS R-value, sequence CGUUCA : ____
## Output 0.886

## Input Reported RBNS R-value, sequence AUUAGU : ____
## Output 0.901

## Input Reported RBNS R-value, sequence UUUUGU : ____
## Output 0.927

## Input Reported RBNS R-value, sequence AUUUGU : ____
## Output 0.975

## Input Reported RBNS R-value, sequence CUCCCU : ____
## Output 0.873

====

system: PfIESI-1 RRM domain (Plasmodium falciparum ortholog aa 875-1232, GST fusion); assay: RBNS R-value (6-mer enrichment in protein-bound RNA vs input library) (ratio); higher = stronger binding preference; conditions: protein concentration: 1000 nM
Over roughly 4,100 sequences, “RBNS R-value (6-mer enrichment in protein-bound RNA vs input library)” has its median near 0.99; the highest 2% begin near 1.4. Shown is part of a subset that was picked to be rich in the highest values.
Threshold check on RBNS R-value: at or above 1 gives TRUE, strictly below gives FALSE.

AAAAUA ... FALSE
ACCCGU ... TRUE

## Input Test whether the sequence GCCCGA records RBNS R-value of 1 or higher.
## Output TRUE

## Input Test whether the sequence UAGAAU records RBNS R-value of 1 or higher.
## Output TRUE

====

test system: PfIESI-1 RRM domain (Plasmodium falciparum ortholog aa 875-1232, GST fusion); assay: RBNS R-value (6-mer enrichment in protein-bound RNA vs input library) (ratio); higher = stronger binding preference; settings: protein concentration: 500 nM
The full ranking holds about 4,100 sequences; the median of “RBNS R-value (6-mer enrichment in protein-bound RNA vs input library)” is about 0.99, and the highest 2% start at about 1.4. The list comes from a sample in which the highest values are over-represented; it also holds close analogues and randomly drawn sequences.
Entries annotated with measured RBNS R-value
Write no unit; give the number alone.

Before answering, review these 3 worked examples.
GUUGAC ... 0.99
UGGACA ... 0.993
GACUAA ... 0.983

// next item, RBNS R-value requested
## Input Reported RBNS R-value, sequence AUAAUG : ____
## Output 0.985

====

test system: PfIESI-1 RRM domain (Plasmodium falciparum ortholog aa 875-1232, GST fusion); test: RBNS R-value (6-mer enrichment in protein-bound RNA vs input library) (ratio); higher = stronger binding preference; the methods of the paper give 50 / 100 / 500 nM protein instead; details: protein concentration: 500 nM
In all, about 4,100 sequences were measured (“RBNS R-value (6-mer enrichment in protein-bound RNA vs input library)”: median about 0.99, highest 2% from about 1.4 on). What follows is part of a selection rich in the highest values, with near analogues and random picks from the rest.
Entries annotated with measured RBNS R-value
Write no unit; give the number alone.

UCGGGG ... 0.984
UUCUCC ... 0.954
GGCACA ... 1.05
UGACAC ... 1.32
UCCACU ... 0.933

## Input Reported RBNS R-value, sequence GACACU : ____
## Output 1.19

## Input Reported RBNS R-value, sequence CAUAUA : ____
## Output 0.733

## Input Reported RBNS R-value, sequence GGCACU : ____
## Output 1.03
